Test target: EGFR (form in the assay not stated) (human, UniProt P00533 25-645, limits assumed)
Method summary: ELISA, NEM conjugate 10 nM
Value kind: binding ratio vs parent P54AR4-83v2 (ratio)
Return type: number; implicit unit ratio.

{"Binder": "P54AR4-83v2 G51C, NEM conjugate (designed binder, NEM on Cys 51, His-tagged) LPAPKNLVVSEVTEDSARLSWDDPWAFYESFLIQYQESEKVGEAIVLTVPCSERSYDLTGLKPGTEYTVSIYGVHNVYKDTNMRGLPLSAIFTT", "Units of measure": "ratio", "Reported value": 0.88}
{"Binder": "P54AR4-83v2 G64C, NEM conjugate (designed binder, NEM on Cys 64, His-tagged) LPAPKNLVVSEVTEDSARLSWDDPWAFYESFLIQYQESEKVGEAIVLTVPGSERSYDLTGLKPCTEYTVSIYGVHNVYKDTNMRGLPLSAIFTT", "Units of measure": "ratio", "Reported value": 1.28}
{"Binder": "P54AR4-83v2 R18C, NEM conjugate (designed binder, NEM on Cys 18, His-tagged) LPAPKNLVVSEVTEDSACLSWDDPWAFYESFLIQYQESEKVGEAIVLTVPGSERSYDLTGLKPGTEYTVSIYGVHNVYKDTNMRGLPLSAIFTT", "Units of measure": "ratio", "Reported value": 0.86}
{"Binder": "P54AR4-83v2 G42C, NEM conjugate (designed binder, NEM on Cys 42, His-tagged) LPAPKNLVVSEVTEDSARLSWDDPWAFYESFLIQYQESEKVCEAIVLTVPGSERSYDLTGLKPGTEYTVSIYGVHNVYKDTNMRGLPLSAIFTT", "Units of measure": "ratio", "Reported value": 0.84}
{"Binder": "P54AR4-83v2 V9C, NEM conjugate (designed binder, NEM on Cys 9, His-tagged) LPAPKNLVCSEVTEDSARLSWDDPWAFYESFLIQYQESEKVGEAIVLTVPGSERSYDLTGLKPGTEYTVSIYGVHNVYKDTNMRGLPLSAIFTT", "Units of measure": "ratio", "Reported value": 0.94}

// query So what does the record say about binding ratio vs parent P54AR4-83v2 for P54AR4-83v2 I91C, NEM conjugate (designed binder, NEM on Cys 91, His-tagged; also called 191C) LPAPKNLVVSEVTEDSARLSWDDPWAFYESFLIQYQESEKVGEAIVLTVPGSERSYDLTGLKPGTEYTVSIYGVHNVYKDTNMRGLPLSACFTT ?
// result 0.9

// query Query (binder): P54AR4-83v2 P2C, NEM conjugate (designed binder, NEM on Cys 2, His-tagged) LCAPKNLVVSEVTEDSARLSWDDPWAFYESFLIQYQESEKVGEAIVLTVPGSERSYDLTGLKPGTEYTVSIYGVHNVYKDTNMRGLPLSAIFTT ; field requested: binding ratio vs parent P54AR4-83v2
// result 0

// query Requested read-out: binding ratio vs parent P54AR4-83v2. Entry: P54AR4-83v2 S52C, NEM conjugate (designed binder, NEM on Cys 52, His-tagged) LPAPKNLVVSEVTEDSARLSWDDPWAFYESFLIQYQESEKVGEAIVLTVPGCERSYDLTGLKPGTEYTVSIYGVHNVYKDTNMRGLPLSAIFTT
// result 0.78

// query Entry P54AR4-83v2 H75C, NEM conjugate (designed binder, NEM on Cys 75, His-tagged) LPAPKNLVVSEVTEDSARLSWDDPWAFYESFLIQYQESEKVGEAIVLTVPGSERSYDLTGLKPGTEYTVSIYGVCNVYKDTNMRGLPLSAIFTT : reported binding ratio vs parent P54AR4-83v2 = ?
// result 0.07
